These entries and their values trace back to ChEMBL document CHEMBL1201862.

Tested on: BT-549
assay info: NCI tumour cell line growth inhibition, 48 h
Active and inactive are the calls of the source. No stated cut-off is given here; in the data, active = GI50 up to about 1.1 µM and inactive = higher.
Provide the recorded GI50 for the entries that follow.

Param readout = GI50; param system = BT-549; param query = CC(=O)N1C(Nc2nccs2)CCN1c1ccccc1 (stereo not given) ; response: value
> 10 µM (inactive)

Param readout= GI50; system= BT-549; entry= O=[N+]([O-])c1nccn1CCCNCCCn1ccnc1[N+](=O)[O-] ; returns value.
> 100 µM (inactive)

Look up GI50 with BT-549 for this compound: O=[N+]([O-])c1ccc(C2CC(c3ccccc3Cl)=Nc3ccccc3[S+]2[O-])cc1 (stereo not given)
13.7 µM (inactive)

Lab note: need GI50 for Cc1ccc2c(n1)NC(=O)C(Cc1ccccc1)(N=[N+]=[N-])C2=O (stereo not given) on BT-549, anyone have it?
> 100 µM (inactive)

# query: GI50 | item COCN1CCN=c2c1c1c3c(c4ccccc4n23)CCC1 | system: BT-549
> 100 µM (inactive)

# query: GI50 | item O=C1CCC2C(O)c3cc4c(cc3C(c3ccc5c(c3)OCO5)N12)OCO4 (stereo not given) | system: BT-549
47.6 µM (inactive)

Report GI50 for CCCc1nnc2sc(COc3ccc(OCc4nn5c(CCC)nnc5s4)c(Cl)c3)nn12 tested on BT-549.
23.9 µM (inactive)

I'm curious: which GI50 was measured for O=C1c2cccc(O)c2C(=O)c2c(OC3OC(CO)C(O)C(O)C3O)cccc21 (stereo not given) tested on BT-549?
21.8 µM (inactive)

Lookup: GI50 / BT-549 / C#C/C=C\CCCCCCCCCCCCCC/C=C\CCCCC#CC(O)C#CCCCC/C=C\CCCCCC/C=C/C(O)C#C (stereo not given)
> 71.9 µM (inactive)

Entry CC(=O)Oc1ccc2oc(=O)cc(C)c2c1 , system BT-549: what GI50 was measured?
> 100 µM (inactive)

* * *

System: SW-620
assay info: NCI tumour cell line growth inhibition, 48 h
The source made the active and inactive calls. Rule as the data show it: active = GI50 up to about 1.1 µM and inactive = higher.
Log the outcome using a class from active, inactive

Per the assay record, what outcome was assigned to O=c1[nH]nc(Cc2ccc(Cl)cc2)n1/N=C/c1ccco1 ?
inactive

Write down the call the test reported for this compound. Item: CCc1n[nH]c(=O)n1CC
inactive

Would you mind telling me which call this test gave O=[N+]([O-])c1cccc(S(=O)(=O)N/N=C/c2cc(I)cc([N+](=O)[O-])c2O)c1 ?
inactive

For CC(C)(Oc1ccc(-c2cccc3ccccc23)cc1)C(=O)O , what call appears in the results of this test?
inactive

Can you look up the reported call for c1ccc2c(c1)CCN2CCN1CCc2ccccc21 for me?
inactive

Would you mind telling me which call this test gave CC(=O)Oc1ccccc1C(=O)C1c2cccc(O)c2C(=O)c2c(O)cccc21 ?
active

Please let me know the test result on file for c1ccc(-c2cnc(-c3ccc(-c4ncc(-c5ccccc5)o4)cc3)o2)cc1 .
inactive

GET /call?item= CCOc1ccc(/N=N/c2ccc3oc(=O)c(/C(C)=N/NC(=O)CC(=O)Nc4cccc(OC)c4)cc3c2)cc1 returns the recorded outcome of this test.
inactive

Which outcome was entered for the compound O=C(CC1Sc2ccccc2NC1=O)Nc1ccccc1[N+](=O)[O-] (configuration not stated) in this test?
inactive

Hi team, can someone confirm the assay call for CN1C(=O)c2c(ccc3c2OCO3)C2C(O)Cc3cc4c(cc3C21)OCO4 (configuration not stated) ?
inactive

// param item: COc1ccccc1/C=C1\S/C(=N/Nc2nc(C)c(C(C)=O)s2)NC1=O ; yields the recorded call
inactive

Assay result, entry CN1c2ccccc2C(=O)Nc2cnc(Cl)nc21 — outcome?
inactive

For this compound, state the assay outcome: C=Cc1c(-c2ccccc2)cnc2[nH]c3ccccc3c12
inactive

Recorded call for COc1ccc(C)cc1Nc1nnc(-c2ccccc2N)s1 ?
inactive

Just curious, what result did O=C(O)/C(Cl)=C(\Cl)Nc1cccc(C(F)(F)F)c1 get here?
inactive

Please state the recorded outcome for this compound: CCCCC1(C)C=C/C(=C2/C(=O)O/C(=C\C(=O)O)C2=O)O1 (configuration not stated)
inactive

Write down the call the test reported for this compound. Item: CC1(C)OC[C@@H]([C@H](C=O)OCc2ccccc2)O1
inactive

# fetch the recorded call for Cc1ccc(NC(=O)c2cc(S(=O)(=O)Nc3n[nH]c(=O)n3-c3ccccc3)c(S)cc2Cl)cc1 here
inactive

How was O=C1O/C(=C\c2ccc(O)cc2)C(c2ccc(O)c(Cl)c2)=C1Cl classified in this test?
inactive

Can you look up the reported call for COc1nc2c(c(=O)[nH]1)N=C(c1ccc([N+](=O)[O-])cc1)CC(c1ccccc1)N2 (configuration not stated) for me?
inactive

Name the outcome recorded for CCCNc1[nH]c(C(C)=O)c(N)c1C(=S)Nc1ccccc1 in the assay.
inactive

What was the test verdict on CCCC(=O)OC1CC(n2cc(F)c(=O)[nH]c2=O)OC1COP(=O)(OCC(Cl)(Cl)Cl)OCC(Cl)(Cl)Cl (configuration not stated) ?
inactive

* * *

Tested on: SK-MEL-28
assay info: NCI tumour cell line growth inhibition, 48 h
The source made the active and inactive calls. Cut-off read from the data, not from the text of the source: active = GI50 up to about 1.1 µM and inactive = higher.
For each record, write down the corresponding GI50.

Fill in: GI50 of O=NN(CC1(O)OCC(O)C(O)C1O)C(Cc1c[nH]c2ccccc12)C(=O)O (stereo not given) is ___
> 100 µM (inactive)

Look at this compound and give its reported GI50. O=C(N/N=C/c1ccccc1)c1c(-c2cccnc2)cnc2ccccc12
> 100 µM (inactive)

Which value of GI50 has been reported for CC(C)/C(Cl)=N/OC(=O)Nc1cccc(C(F)(F)F)c1 in the records?
5.45 µM (inactive)

Entry CC(C)(C)NNC(=O)/C(=C/c1ccc([N+](=O)[O-])cc1)NC(=O)c1ccccc1 has what GI50?
> 100 µM (inactive)

Query (compound): COC(=O)CCC(=O)CC(=O)C(=O)Nc1c(Cl)cc([N+](=O)[O-])cc1Cl ; field requested: GI50
> 100 µM (inactive)

For the compound COc1ccc(C)cc1Nc1nnc(-c2ccccc2N)s1 , what GI50 is on record?
53.3 µM (inactive)

Given the compound O=[N+]([O-])c1nccn1CCCNCCCn1ccnc1[N+](=O)[O-] , what is its reported GI50?
> 100 µM (inactive)

Suppose we examine the compound COc1cc(OC(=O)c2ccccc2)cc2c1C(=O)C=CC2=O ; what GI50 value has been reported?
18.2 µM (inactive)

If you can, please state the reported GI50 value of COC(=O)C1=C(OC)[C@H]2C#C/C=C\C#C[C@@H]3Nc4c(cc(O)c5c4C(=O)c4ccccc4C5=O)[C@]24O[C@@]34[C@H]1C .
< 0.0229 µM (active)

Need GI50 of Cc1ccc2c(c1)C1(C)OC(C=CC1=O)O2 (stereo not given) , thanks.
0.586 µM (active)

* * *

System: BT-549
assay info: NCI tumour cell line growth inhibition, 48 h
Calls of active or inactive are those of the source. No stated cut-off is given here; in the data, active = GI50 up to about 1.1 µM and inactive = higher.
measurement name: GI50

What does the data say about its GI50? Entry: Cc1ccc(Cc2n[nH]c(=O)n2-c2ccccc2)cc1
> 100 µM (inactive)

Would you mind telling me what GI50 value was observed for CCN1CN(c2ccccc2)C2(CCN(CC3COc4ccccc4O3)CC2)C1=O (stereo not given) ?
16 µM (inactive)

Looking for the measured GI50 of O=C1Nc2ccccc2/C1=N/Nc1nc(-c2ccc([N+](=O)[O-])cc2)cs1 , can you help?
15.6 µM (inactive)

Name the recorded GI50 for Cc1ccc(NC(=O)c2cc(S(=O)(=O)Nc3n[nH]c(=O)n3-c3ccccc3)c(S)cc2Cl)cc1 .
> 100 µM (inactive)

What measured GI50 goes with C=C(C)[C@@H]1C[C@H]2O[C@](O)(C(=C)CC(=O)/C=C(/C)C[C@@H]3OC(=O)[C@]24O[C@@H]34)[C@H]1O ?
> 100 µM (inactive)

Return reported GI50; argument: Cc1ccc(S(=O)(=O)NNC2(NS(=O)(=O)c3ccc(Cl)cc3)C(Cl)=C(Cl)C(=O)c3ccccc32)cc1 (stereo not given)
14.9 µM (inactive)

Would you kindly share the measured GI50 for CC[C@@]1(O)C(=O)OCc2c1c(Cl)c1n(c2=O)Cc2cc3ccccc3nc2-1 ?
8.67 µM (inactive)

What value of measured GI50 is listed for c1ccc2c(c1)Sc1nccc3ccnc-2c13 ?
77.1 µM (inactive)

Reported GI50, compound CC(=O)C(C(=O)c1ccc(C)cc1)[C@H]1OC(C)(C)O[C@H]1[C@H]1COC(C)(C)O1 (stereo not given in full) : ____
6.3 µM (inactive)

Data request, read-out GI50, for CC(C)=C[C@@H]1C[C@H](C)c2c(O)cc(C)c3c2C1=C(C)C(=O)C3=O [ELISABATIN A]
13.7 µM (inactive)

Which measured GI50 value corresponds to Cc1cc2c(cc1Cl)SC(NNc1cnc3ccccc3n1)=NS2(=O)=O ?
> 100 µM (inactive)

# input compound: O=C(O)Cc1ccc(N2N=C(c3ccccc3)CC2=O)cc1 ; wanted: its GI50
> 100 µM (inactive)

What GI50 value was documented for this compound, O=C1OC(C2Cc3cc4c(cc3C2=O)CCC4)c2ccccc21 (stereo not given) ?
> 10 µM (inactive)

So what's the measured GI50 for this one? COCn1c2ccc(OC(C)=O)cc2c2c(=O)oc(N(C)C)nc21
> 100 µM (inactive)

Suppose we examine the compound COc1cc(OC(=O)c2ccccc2)cc2c1C(=O)C=CC2=O ; what GI50 value has been reported?
15.8 µM (inactive)

GI50 lookup needed for CCCc1cn2c(/C=N/N=C(N)N)c(-c3c(OC)ccc(OC)c3[N+](=O)[O-])nc2s1 , thanks.
10.9 µM (inactive)

Tell me the measured GI50 of C=C1C(=O)OC2C1C(=O)C/C(C)=C/CCC1(C)OC21 (stereo not given) , please.
23.3 µM (inactive)

Quick one: GI50 for COc1cc(C(=O)N(Cc2cccnc2)C(=S)N(Cc2cccnc2)C(=O)c2cc(OC)c(OC)c(OC)c2)cc(OC)c1OC ?
28.5 µM (inactive)

// returns reported GI50 for input ClCCc1ccccc1CC1=NCCc2ccccc21
30.3 µM (inactive)

Looking for the measured GI50 of CC(C)OC1=C(CC2(C)OCCO2)C(=O)C12OCCO2 , can you help?
> 100 µM (inactive)
